The measured values listed here are drawn from paper PMC11247487.

- assayed_target: MER (Homo sapiens, UniProt Q12866)
- Construct: A purified kinase (MER or AXL) was incubated with a compound or DMSO
- Sequence (Q12866 21-999): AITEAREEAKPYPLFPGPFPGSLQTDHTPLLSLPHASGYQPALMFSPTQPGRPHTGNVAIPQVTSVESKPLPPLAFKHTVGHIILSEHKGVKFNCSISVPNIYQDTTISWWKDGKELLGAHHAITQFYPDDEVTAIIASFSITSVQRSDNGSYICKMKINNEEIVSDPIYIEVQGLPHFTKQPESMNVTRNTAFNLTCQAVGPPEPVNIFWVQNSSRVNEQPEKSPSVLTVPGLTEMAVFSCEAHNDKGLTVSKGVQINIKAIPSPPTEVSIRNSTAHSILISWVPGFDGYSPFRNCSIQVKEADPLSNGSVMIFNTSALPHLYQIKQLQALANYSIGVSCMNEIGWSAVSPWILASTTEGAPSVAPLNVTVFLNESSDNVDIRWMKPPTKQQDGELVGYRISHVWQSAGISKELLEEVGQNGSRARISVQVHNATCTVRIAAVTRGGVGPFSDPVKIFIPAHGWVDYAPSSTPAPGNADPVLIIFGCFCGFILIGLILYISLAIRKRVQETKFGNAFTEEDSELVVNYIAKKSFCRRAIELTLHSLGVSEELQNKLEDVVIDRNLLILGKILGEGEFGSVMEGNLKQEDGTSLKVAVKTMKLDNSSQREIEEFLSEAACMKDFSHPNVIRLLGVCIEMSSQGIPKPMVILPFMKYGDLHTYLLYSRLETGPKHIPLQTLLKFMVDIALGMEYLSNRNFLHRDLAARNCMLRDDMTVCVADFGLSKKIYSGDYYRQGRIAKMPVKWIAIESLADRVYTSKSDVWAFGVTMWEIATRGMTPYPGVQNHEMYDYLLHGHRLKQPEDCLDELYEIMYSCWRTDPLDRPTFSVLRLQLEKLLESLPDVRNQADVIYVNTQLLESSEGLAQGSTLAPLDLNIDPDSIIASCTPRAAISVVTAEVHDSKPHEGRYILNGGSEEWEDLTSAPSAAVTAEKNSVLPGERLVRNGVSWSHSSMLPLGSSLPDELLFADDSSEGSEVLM
- assay_overview: MER enzyme inhibition assay (in-house Kinase-Glo)
- Type: biochemical
quantity_name: pIC50
Notebook: values listed as pIC50 are -log10 of the concentration (mol/L).

// known answers, use as guide
COc1cc2nccc(Oc3ccc(NC(=O)c4cc5c(n(-c6ccccc6)c4=O)CCCC5=O)nc3)c2cc1OC :: 8.01
Cn1cc(-c2oc3ncnc(Oc4ccc(NC(=O)c5cccn(-c6ccc(F)cc6)c5=O)cc4)c3c2-c2cccc(N3CCNCC3)c2)cn1 :: 8.68
CN1CCN(c2cccc(-c3c(-c4cnn(C)c4)oc4ncnc(Oc5ccc(NC(=O)c6cccn(-c7ccc(F)cc7)c6=O)cc5)c34)c2)CC1 :: 7.85
CN1CCN(c2ccc(-c3c(-c4cnn(C)c4)oc4ncnc(Oc5ccc(NC(=O)c6cccn(-c7ccc(F)cc7)c6=O)cc5)c34)cc2)CC1 :: 8.24

Please turn your attention to the following entry.
(Q) For the compound `Cn1cc(-c2oc3ncnc(Oc4ccc(NC(=O)c5cccn(-c6ccc(F)cc6)c5=O)cc4)c3c2-c2ccc(N3CCNCC3)cc2)cn1` , give its reported pIC50.
(A) 8.70
